molecular target: PKD2 (Homo sapiens, UniProt Q13563); test: Cilia Ca2+ fluorescence (smo-GCaMP3), Stage 2; type: cell-based; set-up: cilia Ca^2+ responses from cells with PKD2 present and knocked out using CRISPR=Cas9; endogenous in cells; host or cells: human kidney collecting duct cells expressing the smo-GCaMP3 cilia reporter; conditions: smo-GCaMP3, human kidney collecting duct cells; read-out: EC50, increased ciliary Ca2+ fluorescence
Sequence (Q13563 whole entry): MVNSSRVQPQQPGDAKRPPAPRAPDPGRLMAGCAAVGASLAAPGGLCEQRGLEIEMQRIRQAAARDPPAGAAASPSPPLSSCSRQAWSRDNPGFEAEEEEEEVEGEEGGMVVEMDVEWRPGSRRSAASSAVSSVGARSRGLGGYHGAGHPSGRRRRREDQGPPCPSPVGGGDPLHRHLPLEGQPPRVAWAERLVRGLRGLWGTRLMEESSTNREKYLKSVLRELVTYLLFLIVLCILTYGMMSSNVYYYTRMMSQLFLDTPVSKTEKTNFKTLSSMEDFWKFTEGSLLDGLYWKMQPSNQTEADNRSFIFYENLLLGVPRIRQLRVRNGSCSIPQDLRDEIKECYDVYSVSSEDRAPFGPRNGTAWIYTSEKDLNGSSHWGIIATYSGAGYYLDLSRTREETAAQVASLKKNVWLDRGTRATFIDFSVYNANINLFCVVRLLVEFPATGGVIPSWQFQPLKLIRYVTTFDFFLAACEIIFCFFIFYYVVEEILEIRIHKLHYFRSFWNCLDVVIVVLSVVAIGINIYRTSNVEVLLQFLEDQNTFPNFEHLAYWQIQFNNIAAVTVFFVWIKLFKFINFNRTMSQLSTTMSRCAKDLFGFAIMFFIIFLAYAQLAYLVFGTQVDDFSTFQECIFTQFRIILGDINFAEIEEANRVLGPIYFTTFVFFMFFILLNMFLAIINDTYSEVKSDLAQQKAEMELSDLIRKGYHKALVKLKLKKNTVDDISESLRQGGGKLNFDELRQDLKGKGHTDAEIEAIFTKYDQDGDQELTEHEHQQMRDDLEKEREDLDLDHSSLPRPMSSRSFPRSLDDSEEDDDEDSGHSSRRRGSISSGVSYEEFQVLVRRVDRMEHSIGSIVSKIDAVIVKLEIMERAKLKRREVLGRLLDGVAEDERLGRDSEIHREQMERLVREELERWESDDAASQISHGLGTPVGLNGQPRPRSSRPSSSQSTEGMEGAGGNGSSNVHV
Measure: pEC50
In textbook form, pEC50 equals minus log to base ten of the concentration in mol/L.

**Q:** Test system PKD2 (Homo sapiens, UniProt Q13563); read-out pEC50; what value for O=C(Nc1cc(C(F)(F)F)ccc1O)Nc1cc(C(F)(F)F)ccc1O ?
**A:** 5.64

* * *

biological target: polycystin-2 channels (Mus musculus, UniProt O35245, DEL771-772); construct: the mouse channel orthologue under endogenous expression in the kidney collecting duct; endogenous in cells; experiment: Inside-out cilia patch of pIMCD cells, calcium opening of polycystin-2 channels; settings: Pkd2del-Z/delZ mice; read-out: EC50, potency of calcium opening polycystin-2 channels
Sequence (O35245 with tags, fused parts or gaps DEL771-772): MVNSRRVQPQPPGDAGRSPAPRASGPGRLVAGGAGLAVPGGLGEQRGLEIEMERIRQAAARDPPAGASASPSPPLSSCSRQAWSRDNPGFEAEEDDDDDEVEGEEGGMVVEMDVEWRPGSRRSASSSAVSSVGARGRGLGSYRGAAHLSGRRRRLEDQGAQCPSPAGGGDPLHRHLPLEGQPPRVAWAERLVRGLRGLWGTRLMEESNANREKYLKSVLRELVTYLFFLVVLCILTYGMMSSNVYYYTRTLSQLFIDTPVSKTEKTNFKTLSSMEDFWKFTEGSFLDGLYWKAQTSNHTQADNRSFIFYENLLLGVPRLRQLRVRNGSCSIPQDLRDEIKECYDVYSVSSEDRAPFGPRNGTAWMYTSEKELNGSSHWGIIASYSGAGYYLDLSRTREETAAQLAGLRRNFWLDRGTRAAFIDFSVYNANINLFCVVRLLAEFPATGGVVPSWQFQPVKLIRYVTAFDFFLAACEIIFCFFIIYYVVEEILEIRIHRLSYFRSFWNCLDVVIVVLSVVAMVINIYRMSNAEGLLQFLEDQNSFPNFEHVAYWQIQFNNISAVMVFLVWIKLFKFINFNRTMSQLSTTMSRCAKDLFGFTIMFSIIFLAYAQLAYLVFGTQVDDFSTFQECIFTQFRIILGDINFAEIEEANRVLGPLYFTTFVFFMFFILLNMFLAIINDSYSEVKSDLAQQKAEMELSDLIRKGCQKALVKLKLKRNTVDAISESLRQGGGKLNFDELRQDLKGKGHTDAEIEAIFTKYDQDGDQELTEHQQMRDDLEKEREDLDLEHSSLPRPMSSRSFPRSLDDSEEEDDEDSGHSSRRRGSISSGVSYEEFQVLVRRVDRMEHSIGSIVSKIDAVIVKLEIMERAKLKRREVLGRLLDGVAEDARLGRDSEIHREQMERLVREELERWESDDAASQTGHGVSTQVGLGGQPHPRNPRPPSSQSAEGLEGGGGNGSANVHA
Measure: EC50 (nM)
Please reply with the bare figure in nM and do not write the unit itself.

**Q:** What EC50 appears in the records for this molecule with polycystin-2 channels (Mus musculus, UniProt O35245, DEL771-772)? [Ca+2]
**A:** 1400
